experiment: Stability in mouse plasma assessed as parent compound remaining after 4 hrs by radio-HPLC analysis; assay type: ADME, cell-free; details: read-out: Stability
OBSERVABLE: remaining at 4 h

Reported remaining at 4 h for CNC(=O)c1sc(-c2ccnc(NC(=O)C3CC3)c2)nc1OCC[18F] was > 95%

---

Exercise: state measured pIC50 for each of the compounds provided.
molecular target: Glycogen synthase kinase-3 beta (Homo sapiens)
Sequence (P49841 whole entry): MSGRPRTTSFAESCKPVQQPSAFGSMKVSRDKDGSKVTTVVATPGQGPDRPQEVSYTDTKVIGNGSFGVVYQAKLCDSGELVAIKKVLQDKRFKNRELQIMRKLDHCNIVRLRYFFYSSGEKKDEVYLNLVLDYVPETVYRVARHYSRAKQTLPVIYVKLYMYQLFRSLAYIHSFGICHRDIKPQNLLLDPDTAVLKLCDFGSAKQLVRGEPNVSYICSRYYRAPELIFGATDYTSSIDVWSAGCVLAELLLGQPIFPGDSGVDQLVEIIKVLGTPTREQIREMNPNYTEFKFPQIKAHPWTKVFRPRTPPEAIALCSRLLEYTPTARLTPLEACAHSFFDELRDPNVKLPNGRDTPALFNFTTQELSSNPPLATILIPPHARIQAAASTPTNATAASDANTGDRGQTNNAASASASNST
Note on pIC50: it is the negative log10 of concentration, concentration in mol/L.

pIC50 measured on CCOC(=O)c1sc(-c2ccnc(NC(=O)C3CC3)c2)nc1OCCOCCOCCF = 6.46

Entry under test: CNC(=O)c1sc(-c2ccnc(NC(=O)C3CC3)c2)nc1OCCF . Its pIC50 was 8.22

The compound identified as O=C(NCCF)c1sc(-c2ccnc(NC(=O)C3CC3)c2)nc1OCC1CC1 registered its pIC50 at 7.74

get_value(item= CN(C)C(=O)c1sc(-c2ccnc(NC(=O)C3CC3)c2)nc1OCCOCCF , readout=pIC50) returns 6.83

The compound listed as CCOC(=O)c1sc(-c2ccnc(NC(=O)C3CC3)c2)nc1OCCF has a reported pIC50 of 7.17

// field: pIC50; key: CCOC(=O)c1sc(-c2ccnc(NC(=O)C3CC3)c2)nc1OCCOCCF ; value = 6.37

Value of measured pIC50 for the entry CNC(=O)c1sc(-c2ccnc(NC(=O)C3CC3)c2)nc1OCCOCCF : 7.44
